Experiment: Oral solution formulation excipient screening (solubility estimated by HPLC)
Assay type: physicochemical
Conditions: Soybean oil, oil or lipid
PROPERTY: solubility

Please give the measured solubility for this compound: `N#CC1CN(C[C@@H](Cc2ncnc(O)c2O)c2ccc(C#Cc3ccc(CN4CCOCC4)cc3)cc2)C1`
20 µg/mL

* * *

Test: Oral solution formulation excipient screening (solubility estimated by HPLC)
Type: physicochemical
Details: Polysorbate 20, aqueous with cosolvent or surfactant or cyclodextrin
PROPERTY: solubility

Please give the measured solubility for this molecule: `N#CC1CN(C[C@@H](Cc2ncnc(O)c2O)c2ccc(C#Cc3ccc(CN4CCOCC4)cc3)cc2)C1`
850 µg/mL

* * *

Experiment: Oral solution formulation excipient screening (solubility estimated by HPLC)
Type: physicochemical
Conditions: Lactic acid, organic solvent or mixture
PROPERTY: solubility

Please give the measured solubility for this compound: `N#CC1CN(C[C@@H](Cc2ncnc(O)c2O)c2ccc(C#Cc3ccc(CN4CCOCC4)cc3)cc2)C1`
≥ 20 mg/mL

* * *

Assay: Oral solution formulation excipient screening (solubility estimated by HPLC)
Assay type: physicochemical
Settings: Peppermint oil, oil or lipid
PROPERTY: solubility (µg/mL)
Supply the numeric figure in µg/mL, leaving out any unit text.

Please give the measured solubility for this molecule: N#CC1CN(C[C@@H](Cc2ncnc(O)c2O)c2ccc(C#Cc3ccc(CN4CCOCC4)cc3)cc2)C1 [Compound A]
50

* * *

Assay: Oral solution formulation excipient screening (solubility estimated by HPLC)
Assay type: physicochemical
Settings: Polysorbate 80, aqueous with cosolvent or surfactant or cyclodextrin
PROPERTY: solubility (µg/mL)
Supply the numeric figure in µg/mL, leaving out any unit text.

Please give the measured solubility for this compound: N#CC1CN(C[C@@H](Cc2ncnc(O)c2O)c2ccc(C#Cc3ccc(CN4CCOCC4)cc3)cc2)C1 [Compound A]
620
